Molecular target: Nitric oxide synthase, inducible (Mus musculus) (UniProt P29477)
Sequence (whole entry): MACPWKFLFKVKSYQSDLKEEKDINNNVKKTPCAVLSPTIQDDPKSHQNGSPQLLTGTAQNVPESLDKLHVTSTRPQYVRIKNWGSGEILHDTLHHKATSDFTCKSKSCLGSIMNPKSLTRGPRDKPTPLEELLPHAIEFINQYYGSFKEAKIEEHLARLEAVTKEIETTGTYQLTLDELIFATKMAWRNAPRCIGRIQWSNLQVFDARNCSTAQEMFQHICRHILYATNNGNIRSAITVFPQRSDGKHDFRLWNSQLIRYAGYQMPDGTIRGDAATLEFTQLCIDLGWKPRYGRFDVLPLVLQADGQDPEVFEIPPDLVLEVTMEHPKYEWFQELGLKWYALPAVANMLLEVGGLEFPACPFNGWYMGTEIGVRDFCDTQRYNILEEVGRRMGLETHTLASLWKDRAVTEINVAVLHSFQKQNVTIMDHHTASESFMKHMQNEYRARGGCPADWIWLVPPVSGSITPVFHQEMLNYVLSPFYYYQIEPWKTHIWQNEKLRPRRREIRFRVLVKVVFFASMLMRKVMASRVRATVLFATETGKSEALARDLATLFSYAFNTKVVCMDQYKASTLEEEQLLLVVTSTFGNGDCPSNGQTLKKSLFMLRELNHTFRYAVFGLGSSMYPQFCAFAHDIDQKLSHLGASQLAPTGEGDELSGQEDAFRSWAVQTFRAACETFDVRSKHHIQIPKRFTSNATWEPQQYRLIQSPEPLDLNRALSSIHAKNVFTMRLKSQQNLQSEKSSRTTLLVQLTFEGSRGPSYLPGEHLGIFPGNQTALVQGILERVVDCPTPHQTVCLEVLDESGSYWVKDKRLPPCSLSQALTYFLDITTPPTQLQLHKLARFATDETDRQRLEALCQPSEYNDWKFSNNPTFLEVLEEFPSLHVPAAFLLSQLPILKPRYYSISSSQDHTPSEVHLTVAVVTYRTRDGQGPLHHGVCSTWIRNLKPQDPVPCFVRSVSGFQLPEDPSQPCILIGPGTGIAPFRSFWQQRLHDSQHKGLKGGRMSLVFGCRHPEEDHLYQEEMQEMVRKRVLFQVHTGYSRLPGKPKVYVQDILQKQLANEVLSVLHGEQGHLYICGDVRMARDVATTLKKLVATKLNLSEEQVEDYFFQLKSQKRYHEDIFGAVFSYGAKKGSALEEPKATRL
Assay: Inhibition of mouse recombinant iNOS expressed in Escherichia coli assessed as conversion of [gamma-14C]L-arginine to [14C]L-citrulline at 100 uM by radioactive assay relative to control
Parameters: scale not given: the % may be the effect or the level left
Here, each record is paired with measured Activity data.
Enter your answer as a number in %; do not include the unit.

// solved cases for Activity follow
compound	Activity [%]
COc1ccc(-c2ccc(C(=O)C3CN=C4C=C(C)C=CN4C3)cc2)cc1.Cl (centres undefined)	13
CC1=CC2=NCC(C(=O)c3ccc(-c4ccc(Br)cc4)cc3)CN2C=C1.[O-][Cl+3]([O-])([O-])O (centres undefined)	19
COc1ccc(C(=O)C2CN=C3C(C)=CC=CN3C2)cc1OC (centres undefined)	96
CC1=CC2=NCC(C(=O)c3ccc(OCc4ccc(Cl)cc4)cc3)CN2C=C1.[O-][Cl+3]([O-])([O-])O (centres undefined)	25
O=C(c1ccc(Cl)c(Cl)c1)C1CN=C2C=CC=CN2C1.[O-][Cl+3]([O-])([O-])O (centres undefined)	85

Then there is this compound:
Input: Name the value of Activity reported for CC1=CC2=NCC(C(=O)c3ccc(OCc4ccc(Br)cc4)cc3)CN2C=C1.Cl (centres undefined) when tested on Nitric oxide synthase, inducible (Mus musculus) (UniProt P29477).
Output: 62
